- assay_target: NOX1 (Homo sapiens, UniProt Q9Y5S8)
- Construct: endogenous in cells; host or cells: HT29
- Sequence (Q9Y5S8 1-564): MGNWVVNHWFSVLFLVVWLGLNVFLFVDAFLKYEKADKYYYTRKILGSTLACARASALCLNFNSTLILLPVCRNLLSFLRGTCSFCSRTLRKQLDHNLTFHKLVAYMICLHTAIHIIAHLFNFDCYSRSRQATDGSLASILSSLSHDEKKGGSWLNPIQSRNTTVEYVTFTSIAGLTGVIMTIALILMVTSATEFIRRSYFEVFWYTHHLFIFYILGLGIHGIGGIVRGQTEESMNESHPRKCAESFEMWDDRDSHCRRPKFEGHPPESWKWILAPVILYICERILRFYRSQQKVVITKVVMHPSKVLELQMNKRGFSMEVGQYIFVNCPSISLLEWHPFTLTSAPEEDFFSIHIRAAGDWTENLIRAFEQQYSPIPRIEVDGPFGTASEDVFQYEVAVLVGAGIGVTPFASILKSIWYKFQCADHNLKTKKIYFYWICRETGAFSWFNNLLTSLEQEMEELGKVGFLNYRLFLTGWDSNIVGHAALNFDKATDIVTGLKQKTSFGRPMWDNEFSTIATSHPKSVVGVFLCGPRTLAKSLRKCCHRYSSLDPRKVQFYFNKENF
- Sequence (P13498 2-195 partner limits assumed): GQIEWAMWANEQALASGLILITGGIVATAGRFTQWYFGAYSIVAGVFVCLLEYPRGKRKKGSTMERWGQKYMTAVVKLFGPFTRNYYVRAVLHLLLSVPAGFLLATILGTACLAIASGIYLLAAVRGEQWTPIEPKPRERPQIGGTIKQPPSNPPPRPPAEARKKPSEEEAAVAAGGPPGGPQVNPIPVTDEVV
- assay: NOX1 HT29 cell-based assay (luminol/HRP luminescence)
- experimental_conditions: HT-29; 100 nM; HT29 cells; DMSO = 0%, GKT137831 = 100%
Quick list: inhibition at 0.1 µM per entry.

Example results:
COc1cc2[nH]c(-c3ccccc3OC)c(N)c(=O)c2cc1OC    ≤ 19%
COc1cc2[nH]c(-c3ccccc3[N+](=O)[O-])c(O)c(=O)c2cc1OC [Compound 29, 2,2,2-trifluoroacetate]    ≥ 80%
COc1cc2[nH]c(-c3ccccc3N)c(O)c(=O)c2cc1OC    ≤ 19%

Attention now turns to another entry.
`COc1ccccc1-c1[nH]c2cc3c(cc2c(=O)c1O)OCO3` on NOX1 (Homo sapiens, UniProt Q9Y5S8) gives inhibition at 0.1 µM = ≥ 80%

---

Quick list: inhibition at 1 µM per entry.
- assay_target: NOX2 (Homo sapiens, UniProt P04839)
- Construct: HL-60 cells, rich in NOX2 expression; endogenous in cells; host or cells: DMSO-differentiated HL-60
- Sequence (P04839 2-570 limits assumed): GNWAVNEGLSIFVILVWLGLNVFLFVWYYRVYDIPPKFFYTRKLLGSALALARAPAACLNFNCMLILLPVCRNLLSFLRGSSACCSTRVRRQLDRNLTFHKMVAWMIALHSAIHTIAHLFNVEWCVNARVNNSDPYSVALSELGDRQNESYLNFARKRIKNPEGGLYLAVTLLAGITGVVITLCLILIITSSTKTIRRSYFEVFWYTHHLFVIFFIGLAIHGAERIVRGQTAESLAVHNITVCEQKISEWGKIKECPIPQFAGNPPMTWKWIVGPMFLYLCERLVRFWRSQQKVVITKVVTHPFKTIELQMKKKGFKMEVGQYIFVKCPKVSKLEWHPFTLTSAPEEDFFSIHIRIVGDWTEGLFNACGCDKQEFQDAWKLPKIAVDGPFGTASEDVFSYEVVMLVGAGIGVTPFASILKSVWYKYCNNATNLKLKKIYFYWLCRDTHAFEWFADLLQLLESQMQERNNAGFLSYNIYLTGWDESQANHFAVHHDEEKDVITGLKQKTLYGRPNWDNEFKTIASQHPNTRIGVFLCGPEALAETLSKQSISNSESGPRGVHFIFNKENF
- Sequence (P13498 2-195 partner limits assumed): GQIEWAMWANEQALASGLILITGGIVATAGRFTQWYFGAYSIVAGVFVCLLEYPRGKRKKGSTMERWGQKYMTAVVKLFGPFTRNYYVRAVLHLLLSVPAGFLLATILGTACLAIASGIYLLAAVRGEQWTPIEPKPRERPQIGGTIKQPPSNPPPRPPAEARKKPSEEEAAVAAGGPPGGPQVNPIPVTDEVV
- assay: NOX2 HL60 cell-based assay (PMA oxidative burst, L012 chemiluminescence)
- experimental_conditions: HL-60, 1000 nM; DMSO-differentiated HL-60 cells, PMA-stimulated

CCCOc1ccccc1-c1[nH]c2cc(OC)c(OC)cc2c(=O)c1O [Compound 22]    ≥ 80%
COc1cc2[nH]c(-c3cccs3)c(O)c(=O)c2cc1OC [Compound 7]    50 to 79%
COc1cc2[nH]c(-c3ccccc3C)c(O)c(=O)c2cc1OC [Compound 16]    ≥ 80%
COc1cc2[nH]c(-c3ccc(Cl)cc3Cl)c(O)c(=O)c2cc1OC [Compound 24]    ≥ 80%
COc1ccc(-c2c(O)c(=O)c3ccccc3n2C)cc1 [Compound 39]    ≤ 19%

inhibition at 1 µM measured on Br.O=c1c(O)c(-c2ccc(O)cc2)[nH]c2cc(O)c(O)cc12 [Compound 3, hydrobromide] = ≥ 80%

inhibition at 1 µM measured on COc1ccc2[nH]c(C(=O)c3ccccc3OC)c(O)c(=O)c2c1 [Compound 34] = ≤ 19%

inhibition at 1 µM measured on COc1cc2c(cc1OC)C(=O)NCC(c1ccccc1Cl)=N2 [Compound 35] = ≤ 19%

inhibition at 1 µM measured on COc1cc2[nH]c(-c3ccc(F)cc3)c(O)c(=O)c2cc1OC [Compound 13] = ≥ 80%

inhibition at 1 µM measured on COc1cc2[nH]c(-c3ccc(N4CCCC4)cc3)c(O)c(=O)c2cc1OC [Compound 11] = ≤ 19%

inhibition at 1 µM measured on COc1ccccc1-c1[nH]c2c(OC)c(OC)c(OC)cc2c(=O)c1O [Compound 19] = 50 to 79%

inhibition at 1 µM measured on COc1cc2[nH]c(-c3ccc(Cl)cc3)c(O)c(=O)c2cc1OC [Compound 8] = ≤ 19%

inhibition at 1 µM measured on COc1cc2[nH]c(-c3ccccc3[N+](=O)[O-])c(O)c(=O)c2cc1OC [Compound 29, 2,2,2-trifluoroacetate] = ≥ 80%

inhibition at 1 µM measured on COc1cc2[nH]c(-c3ccccc3Cl)c(N)c(=O)c2cc1OC [Compound 36] = ≥ 80%

inhibition at 1 µM measured on CCOc1ccccc1-c1[nH]c2cc(OC)c(OC)cc2c(=O)c1O [Compound 21] = 50 to 79%

inhibition at 1 µM measured on COc1cc2[nH]c(-c3ccccc3F)c(O)c(=O)c2cc1OC [Compound 18] = 50 to 79%

inhibition at 1 µM measured on COc1ccc(-c2[nH]c3cc(OC)c(OC)cc3c(=O)c2O)cc1 [Compound 2, 2,2,2-trifluoroacetate] = 50 to 79%

inhibition at 1 µM measured on COc1ccc(-c2[nH]c3cc(C(=O)O)ccc3c(=O)c2O)cc1 [Compound 33] = 50 to 79%
